- ASSAY INFO: Plasma concentrations up to 7 hours after oral dosing of human volunteers, Example 1B
- Format: in vivo
- RUN CONDITIONS: po, 7.5 mg, Example 1B subject 6 (107 kg), 7.5 mg oral, 2 h
MEASURE: concentration at 2 h (ng/mL)
Write the answer as a number in ng/mL, unit excluded.

Data point: COc1cc2c(cc1OC)[C@H]1C[C@@H](O)[C@H](CC(C)C)CN1CC2 [(+)-α-dihydrotetrabenazine] ; concentration at 2 h = 6.3

====

- ASSAY INFO: Plasma concentrations up to 7 hours after oral dosing of human volunteers, Example 1B
- Format: in vivo
- RUN CONDITIONS: po, 7.5 mg, Example 1B subject 1 (112 kg), 7.5 mg oral, 6 h, read-out: plasma concentrations
MEASURE: concentration at 6 h

Data point: COc1cc2c(cc1OC)[C@H]1C[C@@H](O)[C@H](CC(C)C)CN1CC2 [(+)-α-dihydrotetrabenazine] ; concentration at 6 h = 4.54 ng/mL
